# Assayed target: HIV-1 ADA Env (gp160), on transfected 293 cells or on ADA pseudovirus (HIV-1 strain ADA)
# Experimental details: cell-based or functional assay
Quantity kind: IC50 (ug/ml), pseudovirus neutralisation, TZM-bl assay (µg/mL)

Binder	Result value
1503_H05 (PG16) antibody, sister clone of 1443_C16 (antibody, V domains shown) VH: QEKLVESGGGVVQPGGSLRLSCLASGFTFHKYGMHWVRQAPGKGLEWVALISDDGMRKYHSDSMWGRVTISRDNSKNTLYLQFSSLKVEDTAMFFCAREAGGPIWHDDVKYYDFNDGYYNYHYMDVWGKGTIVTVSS VL: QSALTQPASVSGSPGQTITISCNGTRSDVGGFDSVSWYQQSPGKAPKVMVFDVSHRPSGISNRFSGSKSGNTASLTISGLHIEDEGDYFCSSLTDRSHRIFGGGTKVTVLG	0.003
1469_M23 (PG16) antibody, sister clone of 1443_C16 (antibody, V domains shown) VH: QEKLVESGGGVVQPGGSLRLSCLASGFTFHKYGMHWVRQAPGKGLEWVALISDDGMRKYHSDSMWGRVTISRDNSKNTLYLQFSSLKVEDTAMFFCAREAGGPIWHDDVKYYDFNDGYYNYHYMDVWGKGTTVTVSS VL: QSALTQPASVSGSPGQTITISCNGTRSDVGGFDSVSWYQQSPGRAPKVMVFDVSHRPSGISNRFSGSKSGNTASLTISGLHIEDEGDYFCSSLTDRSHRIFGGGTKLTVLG	0.005
1456_A12 (PG16) antibody, sister clone of 1443_C16 (antibody, V domains shown) VH: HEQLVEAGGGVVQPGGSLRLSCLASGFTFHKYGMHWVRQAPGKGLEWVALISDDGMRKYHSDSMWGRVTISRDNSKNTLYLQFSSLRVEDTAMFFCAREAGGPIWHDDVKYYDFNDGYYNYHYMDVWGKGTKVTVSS VL: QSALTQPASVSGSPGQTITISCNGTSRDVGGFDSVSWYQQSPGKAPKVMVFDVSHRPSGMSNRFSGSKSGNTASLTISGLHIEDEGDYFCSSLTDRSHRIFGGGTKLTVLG	0.005
1489_I13 (PG16) antibody, sister clone of 1443_C16 (antibody, V domains shown) VH: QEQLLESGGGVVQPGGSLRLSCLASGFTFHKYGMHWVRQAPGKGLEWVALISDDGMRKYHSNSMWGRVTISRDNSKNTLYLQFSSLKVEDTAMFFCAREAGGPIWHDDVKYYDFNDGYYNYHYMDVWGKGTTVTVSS VL: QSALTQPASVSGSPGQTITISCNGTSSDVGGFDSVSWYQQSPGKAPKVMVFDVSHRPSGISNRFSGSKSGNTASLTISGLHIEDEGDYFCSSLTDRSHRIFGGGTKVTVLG	0.008
